# Biodistribution of radioactivity, Blood listing for each entry below
- Assay Method Text: In vivo radioactivity biodistribution experiment in normal mice (Example 1, Table 13)
- Set-up: species or system ddY mice
- Condition Parameters: blood, 60 min after injection

Recorded results for 4 molecules are shown here.
Molecule	Biodistribution of radioactivity, Blood
Nc1ccc(/C=C2\Oc3ccc([125I])cc3C2=O)cc1 [[^125I]14]	2.35 (1.38) % injected dose per gram
CNc1ccc(/C=C2\Oc3ccc([125I])cc3C2=O)cc1 [[^125I]12]	2.41 (0.70) % injected dose per gram
CN(C)c1ccc(/C=C2\Oc3ccc([125I])cc3C2=O)cc1 [[^125I]7]	0.94 (0.25) % injected dose per gram
COc1ccc(/C=C2\Oc3ccc([125I])cc3C2=O)cc1 [[^125I]17]	0.70 (0.60) % injected dose per gram

Moving on to another molecule below.
Inquiry: For O=C1/C(=C/c2ccc(O)cc2)Oc2ccc([125I])cc21 [[^125I]20] , what is its reported Biodistribution of radioactivity, Blood?
Reply text: 0.87 (0.28) % injected dose per gram
